Biological target: UniProt P35030
Sequence (P35030 1-304): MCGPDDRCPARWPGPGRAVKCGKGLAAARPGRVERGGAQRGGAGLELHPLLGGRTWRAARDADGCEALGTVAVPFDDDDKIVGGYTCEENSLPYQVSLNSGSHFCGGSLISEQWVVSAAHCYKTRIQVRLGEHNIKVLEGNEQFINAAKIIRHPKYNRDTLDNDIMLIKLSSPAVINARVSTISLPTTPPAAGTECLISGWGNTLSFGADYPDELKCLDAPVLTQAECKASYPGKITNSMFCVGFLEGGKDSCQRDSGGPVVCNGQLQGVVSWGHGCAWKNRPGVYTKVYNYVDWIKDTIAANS
Assay: Kinetic progress curves (kapp, K1, KI*, mechanism)
Assay type: biochemical
Parameters: purchased R&D
Settings: Trypsin-3 K1, apparent equilibrium constant of the first step of slow-binding; mean ± SD
Below, each entry is listed alongside its reported log10(Ki).
reported_endpoint: log10(Ki) (log10 of the value in nM)

compound	log10(Ki)
C[C@@H]1NC(=O)N[C@@H]1CCCCCC(=O)NCCOCCOCCOCCn1cc(CCCOC(=O)NC(Cc2ccc(NC(=N)N)cc2)P(=O)(Oc2ccccc2)Oc2ccccc2)nn1 (stereo partly drawn) [50b]	1.99
C#CCCCOC(=O)NC(Cc1ccc(NC(=N)N)cc1)P(=O)(Oc1ccc(Cl)cc1)Oc1ccc(Cl)cc1 (stereo not drawn) [36b]	0.90
C#CCCCOC(=O)NC(Cc1ccc(NC(=N)N)cc1)P(=O)(Oc1ccccc1)Oc1ccccc1 (stereo not drawn) [34b]	1.46
C#CCCCOC(=O)NC(Cc1ccc(NC(=N)N)cc1)P(=O)(Oc1ccc(NC(C)=O)cc1)Oc1ccc(NC(C)=O)cc1 (stereo not drawn) [35b]	0.00
C[C@@H]1NC(=O)N[C@@H]1CCCCCC(=O)NCCOCCOCCOCCn1cc(CCCOC(=O)NC(Cc2ccc(NC(=N)N)cc2)P(=O)(Oc2ccc(Cl)cc2)Oc2ccc(Cl)cc2)nn1 (stereo partly drawn) [54b]	0.78
CC(=O)Nc1ccc(OP(=O)(Oc2ccc(NC(C)=O)cc2)C(Cc2ccc(NC(=N)N)cc2)NC(=O)OCCCc2cn(CCOCCOCCOCCNC(=O)CCCCC[C@H]3NC(=O)N[C@H]3C)nn2)cc1 (stereo partly drawn) [52b]	1.23

Data credit: paper PMC9849758
